- Assay Notes: Primary fluorescence-based thiol-reactive (MSTI) qHTS assay for identification of artifact compounds. (AID 1845221); also: nearly all actives have a fitted effect of over 65% in size
- Condition Label: MSTI thiol-reactivity probe, 1 h; series mostly up to 53.8 µM
- Text: PI: Alexander Tropsha Ph.D. UNC Eshelman School of Pharmacy University of North Carolina, Chapel Hill, North Carolina Hits from high-throughput screening (HTS) of chemical libraries are often false positives due to their interference with the assay detection technology. […] Using these curated datasets, we developed and validated several Quantitative Structure-Interference Relationship (QSIR) models to predict nuisance behavior. […]
Inconclusive results are not listed. Calls of active or inactive are those of the source. Calls follow the shape of the dose curve; as a rule, active = well fitted inhibition curve with a large enough effect; inconclusive = small, poorly fitted or top-dose-only effect; inactive = no such curve, though single readings can be large or run the other way.
Labels: active, inactive

compound=C=CC(=O)N1CCC(Oc2cc3c(Nc4ccc(Cl)c(Cl)c4F)ncnc3cc2OC)CC1 label_class=inactive
compound=Cc1ccc(NC(=O)N2CCN(c3nc(N)nc4sc(-c5cccnc5)nc34)CC2)cc1 label_class=inactive
compound=Cc1ccc(C2(C(=O)N3CCC(n4nc(-c5ccccc5)oc4=O)CC3)CC2)cc1 label_class=inactive
compound=O=C(NCCCN1CCOCC1)c1cnn2c(-c3ccccc3)cc(-c3ccccc3)nc12 label_class=inactive
compound="CC(=O)O[C@@H]1CC2C(/C=C(\\C)C(=O)[C@@]3(O)C[C@@H](C)[C@H](OC(=O)c4ccccc4)C3/C=C/1C)C2(C)C (some centres undefined)" label_class=inactive
compound="Cc1noc(C)c1-c1cc(O)cc(C(O)c2ccccc2)c1 (centres undefined)" label_class=inactive
compound="C=C1CC2OC(=O)C(=C)C2C(OC(=O)/C(C)=C\\C)CC2(C)OC1=CC2=O (centres undefined)" label_class=inactive
compound=CCCCCCOC(=O)/N=C(\N)c1ccc(NCc2nc3cc(C(=O)N(CCC(=O)OCC)c4ccccn4)ccc3n2C)cc1 label_class=inactive
compound="C=C1C(=O)O[C@@H]2[C@H]1CC[C@H](C)[C@]1(CCC(=O)O1)C2(C)O (some centres undefined)" label_class=inactive
compound=COc1nc2ccc(Br)cc2cc1[C@@H](c1ccccc1)[C@@](O)(CCN(C)C)c1cccc2ccccc12 label_class=inactive
compound=C=CC(C)(C)c1[nH]c2ccccc2c1C[C@@H]1NC(=O)[C@H](C)NC1=O label_class=active
compound="Cc1cc(OCCCS(C)(=O)=O)cc(C)c1-c1cccc(COc2ccc3c(c2)OCC3CC(=O)O)c1 (centres undefined)" label_class=inactive
compound=Cn1ncc(Cl)c1-c1cc(C(=O)N[C@H](CN)Cc2cccc(F)c2)sc1Cl label_class=inactive
compound=CCc1cnc(N2CCC(c3nc(COc4ccc(-n5cnnn5)cc4)cs3)CC2)nc1 label_class=inactive
compound=Nc1nc(O)c(C2=C3C(=Nc4ccccc43)C(=O)NCC2)[nH]1 label_class=inactive
compound=O=C(/C=C/c1ccccc1O)O[C@@H]1O[C@H](CO)[C@@H](O)[C@H](O)[C@H]1O label_class=inactive
compound="COc1ccnc(CS(=O)c2nc3cc(OC(F)F)ccc3[nH]2)c1OC (centres undefined)" label_class=active
compound=Cc1cc(F)c(C(=O)Nc2cccc(-c3nncn3C(C)C)n2)cc1-n1cnc(C2CC2)c1 label_class=inactive
compound="COc1cc(O)cc(OC2OC(CO)C(O)C(O)C2O)c1 (centres undefined)" label_class=active

----------
- System: CRL-7250
- Assay Notes: Cytotoxic Profiling of Annotated Libraries Using Quantitative High-Throughput Screening (AID 1296008); also: % is scaled to controls: 0 for no effect and ±100 for the full control effect; nearly all actives have a fitted effect of over 60% in size
- Condition Label: Five cell lines viability, CellTiter-Glo ATP luminescence, 48-72 h; hits give low values
Results filed as inconclusive are left out.
Below, each entry is listed alongside its reported max response.
Property Label: max response (%)

molecule=COc1ccc(N2CCN(C(=O)c3cc4c(s3)-c3ccccc3S(=O)(=O)C4)CC2)cc1 target_of_assay=CRL-7250 property_label="max response" value_observed=4.26
molecule="CNCCCC1(c2ccccc2)OC(C)(C)c2ccccc21 (stereo unspecified)" target_of_assay=CRL-7250 property_label="max response" value_observed=3.46
molecule="O=C1c2ccc(Nc3ccc(F)cc3F)cc2CCc2ccc(OCC(O)CO)cc21 (stereo unspecified)" target_of_assay=CRL-7250 property_label="max response" value_observed=-2.8
molecule=CC(C)Nc1nc(Nc2ccccc2)nc(-c2ccccc2)n1 target_of_assay=CRL-7250 property_label="max response" value_observed=-10.5
molecule=Clc1ccc(Cn2c(Cc3ccccc3)nc3ccccc32)cc1 target_of_assay=CRL-7250 property_label="max response" value_observed=-7.75
molecule=C=C(C(=O)O)[C@@H]1CC=C(CCC(C)=O)[C@@H](C)CC1 target_of_assay=CRL-7250 property_label="max response" value_observed=-0.888
molecule="CCCN(CCc1ccsc1)C1CCc2c(O)cccc2C1 (stereo unspecified)" target_of_assay=CRL-7250 property_label="max response" value_observed=4.38
molecule="CC(=O)NC(C)c1cnc(-c2cnc(Oc3ccc(OC(C)C)cc3)s2)s1 (stereo unspecified)" target_of_assay=CRL-7250 property_label="max response" value_observed=-17.1
molecule="COc1cc(C(=O)O)ccc1NC(=O)C1NC(CC(C)(C)C)C(C#N)(c2ccc(Cl)cc2F)C1c1cccc(Cl)c1F (stereo unspecified)" target_of_assay=CRL-7250 property_label="max response" value_observed=-18.8
molecule="CC(C)/C=C1\\NC(=O)C(C(C)C)n2c1nc1ccccc1c2=O (stereo unspecified)" target_of_assay=CRL-7250 property_label="max response" value_observed=2.92
molecule=COc1ccc(Sc2ccc(NC(=O)c3ccccc3Cl)cc2C#N)cc1 target_of_assay=CRL-7250 property_label="max response" value_observed=-14.2

----------
- Target Of Assay: Glutathione peroxidase 1 (Homo sapiens)
- Assay Notes: Primary qHTS Assay for Inhibitors of Recombinant Selenoprotein Glutathione Peroxidase 1 (GPX1) (AID 1845191); also: nearly all actives have a fitted effect of over 65% in size
- Condition Label: recombinant GPX1, GR-coupled NADPH fluorescence, 15 min; series mostly up to 48.8 µM
Inconclusive results are not listed. Active and inactive are the calls of the source. Calls follow the shape of the dose curve; as a rule, active = well fitted inhibition curve with a large enough effect; inconclusive = small, poorly fitted or top-dose-only effect; inactive = flat fitted curve, though single readings scatter.
Property Label: outcome

compound="Oc1cccc(C2NC(=S)Nc3cccc(F)c32)c1 (centres undefined)" target_of_assay="Glutathione peroxidase 1 (Homo sapiens)" value_observed=inactive
compound=COc1cc(CCO)ccc1O[C@@H]1O[C@H](CO)[C@@H](O)[C@H](O)[C@H]1O target_of_assay="Glutathione peroxidase 1 (Homo sapiens)" value_observed=inactive
compound="C=C1C(=O)OC2/C=C(\\C)CC3C=C(CC/C=C(\\C)CCC12)C(=O)O3 (centres undefined)" target_of_assay="Glutathione peroxidase 1 (Homo sapiens)" value_observed=inactive
compound="C=C1C(OC2OC(CO)C(O)C(O)C2O)CC2C(C)(C)C(O)CCC2(C)C1CC/C(C)=C\\COC(=O)CC(=O)O (centres undefined)" target_of_assay="Glutathione peroxidase 1 (Homo sapiens)" value_observed=inactive
compound=Cc1cc(-c2cc(OC(=O)c3ccccc3)ccc2Cl)cc2nnc(Nc3ccc(OCCN4CCCC4)cc3)nc12 target_of_assay="Glutathione peroxidase 1 (Homo sapiens)" value_observed=inactive
compound=COc1ccc([C@H]2OC[C@H]3O[C@@H](O[C@H]4[C@@H]2NC[C@@H]4O)[C@H](O)[C@H]3O)cc1 target_of_assay="Glutathione peroxidase 1 (Homo sapiens)" value_observed=inactive
compound=C[C@H](Oc1cc(-n2cnc3ccc(CN4CCN(C)CC4)cc32)sc1C(N)=O)c1ccccc1C(F)(F)F target_of_assay="Glutathione peroxidase 1 (Homo sapiens)" value_observed=inactive
compound=CC(=O)CC(=O)Nc1ccc(Cl)c(C(F)(F)F)c1 target_of_assay="Glutathione peroxidase 1 (Homo sapiens)" value_observed=inactive
compound=CC(=O)N1CCN(CCOc2ccc(C3CCN(C4=Nn5c(nnc5C(F)(F)F)CC4)CC3)cc2)CC1 target_of_assay="Glutathione peroxidase 1 (Homo sapiens)" value_observed=inactive

----------
- Tested on: CAOV3
- Assay Notes: Primary qHTS to identify gynecologic anti-cancer compounds using libraries of approved drugs and bioactive compounds (AID 1345084); also: nearly all actives have a fitted effect of over 55% in size
- Condition Label: Gynecologic cancer cell panel viability, ATPlite luminescence, 48 h; series mostly up to 57.5 µM
Inconclusive results are not listed. The source made the active and inactive calls. Calls follow the shape of the dose curve; as a rule, active = well fitted cell-killing curve with a large enough effect; inconclusive = small, poorly fitted or top-dose-only effect, or effect the other way; inactive = flat fitted curve, though single readings scatter.
Labels: YES for active, NO for inactive

compound="CC(=O)O[C@@H]1C[C@@]2(C)C(CC[C@]3(C)C2CC=C2C4CC(C)(C)CC[C@]4(C(=O)O)CC[C@]23C)C(C)(C)[C@H]1O (some centres undefined)" label_class=NO
compound=O=C(NC[C@H](O)CN1CCc2ccccc2C1)c1ccnc(NC2CCC2)c1 label_class=NO
compound="C[C@@H]1CC[C@]2(C(=O)O)CC[C@]3(C)C(=CCC4[C@@]5(C)CC[C@H](O)[C@](C)(C(=O)O)C5CC[C@]43C)C2[C@]1(C)O (some centres undefined)" label_class=NO
compound="CNC(C)C(=O)NC(C(=O)N1CCCC1C(=O)Nc1snnc1-c1ccccc1)C1CCCCC1 (centres undefined)" label_class=NO
compound=CC(C)(C)c1ccc(C(=O)Nc2cn3cc(-n4ccnc4)ccc3n2)cc1 label_class=NO
compound=Cc1ccc(S(=O)(=O)NCc2ccc(C(=O)NCCN(Cc3ccccc3)C(C)C)cc2)cc1 label_class=NO
compound=CC(C)CCNC(=O)[C@H](CC(C)C)NC(=O)[C@H]1O[C@@H]1C(=O)O label_class=NO
compound="C=C(NC(=O)C(=C)NC(=O)c1csc(C2=NC3c4csc(n4)C4NC(=O)c5csc(n5)C(C(C)(O)C(C)O)NC(=O)C5CSC(=N5)/C(=C/C)NC(=O)C(C(C)O)NC(=O)c5csc(n5)C3(CC2)NC(=O)C(C)NC(=O)C(=C)NC(=O)C(C)NC(=O)C(C(C)CC)NC2C=Cc3c(C(C)O)cc(nc3C2O)C(=O)OC4C)n1)C(N)=O (centres undefined)" label_class=YES
compound=CC(=O)OC[C@]12[C@H](OC(C)=O)[C@H](OC(=O)c3ccccc3)[C@@H]3[C@@H](OC(C)=O)[C@]1(OC3(C)C)[C@H](C)C[C@H](OC(C)=O)[C@@H]2OC(=O)c1ccccc1 label_class=NO
compound=Cc1ccc(-c2cn3c4c(sc3n2)CCCC4)cc1 label_class=YES
compound=Cc1cc(N2CCN(C(=O)Oc3ccc(-c4ccccc4)cn3)CC2)c2ccccc2n1 label_class=NO
compound="C/C(=C/CO)CCC1C(C)CCC2C(C)(C)CCCC12C (centres undefined)" label_class=NO
compound="COc1ccc(C2Oc3c(OC)cc(CCCO)cc3C2COC2OC(CO)C(O)C(O)C2O)cc1OC (centres undefined)" label_class=NO
compound=CCOC(=O)C1(CCOc2ccccc2)CCN(Cc2ccc(O)c(Cl)c2)CC1 label_class=NO
compound=CC1=C(c2ccc(NC(=O)c3c(F)cccc3F)cc2)CN(c2nccs2)CC1 label_class=NO
compound="CN(C)CC#CCCC(=O)C(O)(c1ccccc1)C1CCC1 (centres undefined)" label_class=NO
compound="COC1C=C(C)C(O)(CO)C2(C)CCCC(C)(C)C12 (centres undefined)" label_class=NO
compound="C/C=C(\\C)C(=O)O[C@@H]1[C@@H](C)[C@]2(O)[C@@H]3C=C(C)C(=O)[C@H]3CC(CO)=C[C@H]2C2C(C)(C)[C@@]21OC(=O)C(C)CC (some centres undefined)" label_class=NO
compound="O=C1c2ccc(Nc3ccc(F)cc3F)cc2CCc2ccc(OCC(O)CO)cc21 (centres undefined)" label_class=NO
compound=CC(=O)O[C@H]1[C@@]2(O)C[C@H](C)[C@H](OC(=O)c3ccccc3)[C@@H]2[C@@H](OC(=O)CO)[C@]2(OC(C)=O)C[C@H]3C(=O)C(C)(C)C[C@@H]3[C@@]1(C)[C@H]2OC(C)=O label_class=NO
compound=CN(c1ccc(NC(=O)Nc2ccccc2)cc1)S(=O)(=O)c1cnn(-c2ccc(F)cc2)c1 label_class=NO
compound="COc1c2c(nc3occc13)C(CC=C(C)C)(OC)C(O)CC2 (centres undefined)" label_class=NO
compound=COc1ccc(S(=O)(=O)Nc2cc(Cl)cc(Cl)c2OC)cc1N1CCNCC1 label_class=NO
compound=COc1cc(OC)c2c(=O)[nH]c(-c3cc(C)c(OCCO)c(C)c3)nc2c1 label_class=NO
compound=CNC(=O)COC(=O)N1CCC(CCc2ccc(Cl)cc2)CC1 label_class=NO
compound=O=C(c1cc(Cc2n[nH]c(=O)c3ccccc23)ccc1F)N1CCCNCC1 label_class=NO
compound=Cc1c(F)ccc(C(=O)Nc2cc([N+](=O)[O-])ccc2N2CCN(C)CC2)c1Cl label_class=NO
compound=N#CC(CCCN1CCN(/N=C/c2cccnc2)CC1)(c1ccccc1)c1ccccc1 label_class=NO
compound=CN(C)N(C)C(=O)[C@@]1(Cc2ccccc2)CCCN(C(=O)[C@@H](Cc2c[nH]c3ccccc23)NC(=O)C(C)(C)N)C1 label_class=NO
compound=Cc1nnc(-c2ccc(-c3ccc(C(=O)Nc4ccc(O)c(N5CCN(C)CC5)c4)cc3)c(C)c2)o1 label_class=NO
compound=COC1=CC(=O)O/C1=C(/OC)[C@@H]1O[C@H]1c1ccccc1 label_class=NO
compound=CN1CCN(c2ccc(Nc3cc(-c4cccc(-n5ccc6cc(C7CC7)cc(F)c6c5=O)c4CO)cn(C)c3=O)nc2)CC1 label_class=NO
compound=Cc1ccc(-c2ncc[nH]2)cc1NC(=O)c1ccc(OCc2ccccn2)cc1 label_class=NO
compound="CC(C)/C=C1\\NC(=O)C(C(C)C)n2c1nc1ccccc1c2=O (centres undefined)" label_class=NO

Source of measurements: PubChem BioAssay (NCATS)
